test: Oral bioavailability in rat; type: ADME, organism-based; conditions: in vivo
measuredMetric: bioavailability (%)
Write down the numeric answer in % and omit the unit.

Check out these entries, answers already filled in.
chemicalString	bioavailability / %
NC(=O)Cc1c(C(=O)NN2CCCCC2)nn(-c2ccccc2Cl)c1-c1ccc(Cl)cc1	2
Cc1ccncc1NC(=O)c1nn(-c2ccccc2Cl)c(-c2ccc(Cl)cc2)c1CC(N)=O	39

If you can, please state the reported bioavailability value of NC(=O)Cc1c(C(=O)N2CCC(O)(c3ccc(F)cc3)CC2)nn(-c2ccccc2Cl)c1-c1ccc(Cl)cc1 .
70

====

target: UniProt P21554; test: Inverse agonist activity at human CB1 receptor expressed in CHO-K1 cells by GTPgammaS binding assay; assay type: functional, cell-based
Sequence (P21554 whole entry): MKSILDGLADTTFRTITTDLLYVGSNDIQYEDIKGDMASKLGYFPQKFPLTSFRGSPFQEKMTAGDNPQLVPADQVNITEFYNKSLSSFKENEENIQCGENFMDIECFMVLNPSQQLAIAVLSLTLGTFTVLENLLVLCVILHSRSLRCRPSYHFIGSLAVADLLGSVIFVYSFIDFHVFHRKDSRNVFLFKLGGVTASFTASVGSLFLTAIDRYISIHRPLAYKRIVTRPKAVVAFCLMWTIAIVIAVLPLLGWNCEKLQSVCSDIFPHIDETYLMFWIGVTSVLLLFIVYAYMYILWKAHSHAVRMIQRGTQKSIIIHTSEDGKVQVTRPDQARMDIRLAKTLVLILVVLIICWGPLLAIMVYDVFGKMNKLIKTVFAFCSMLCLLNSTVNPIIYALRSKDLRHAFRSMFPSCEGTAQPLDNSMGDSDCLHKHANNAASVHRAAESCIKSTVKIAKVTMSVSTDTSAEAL
Threshold-based label: IC50 under 1 nM gives Condition met, IC50 not under 1 nM gives Condition not met.

Look over these answered cases.
chemicalString	labelValue
N=C(N)Cc1c(C(=O)N2CCC(c3ncccn3)CC2)nn(-c2ccccc2Cl)c1-c1ccc(Cl)cc1	Condition met
N#CN1CCC(CNC(=O)c2nn(-c3ccccc3Cl)c(-c3ccc(Cl)cc3)c2CC(N)=O)CC1	Condition met
N=C(Cc1c(C(=O)NN2CCCCC2)nn(-c2ccccc2Cl)c1-c1ccc(Cl)cc1)NO	Condition not met
NC(=O)Cc1c(C(=O)N2CCC(c3ncccn3)CC2)nn(-c2ccccc2Cl)c1-c1ccc(Cl)cc1	Condition met
NC(=O)Cc1c(C(=O)N2CCC(O)(c3ccccn3)CC2)nn(-c2ccccc2Cl)c1-c1ccc(Cl)cc1	Condition not met
NC(=O)Cc1c(C(=O)N2CCC(C(=O)O)(c3ccccn3)CC2)nn(-c2ccccc2Cl)c1-c1ccc(Cl)cc1	Condition not met
N=C(N)Cc1c(C(=O)NN2CCCCC2)nn(-c2ccccc2Cl)c1-c1ccc(Cl)cc1	Condition met
NC(=O)Cc1c(C(=O)N2CCC(O)(c3ccc(F)cc3)CC2)nn(-c2ccccc2Cl)c1-c1ccc(Cl)cc1	Condition met

Lab note: confirm whether the reported IC50 for this compound is below 1 nM, equality not counting. compound: Cc1ccncc1NC(=O)c1nn(-c2ccccc2Cl)c(-c2ccc(Cl)cc2)c1CC(N)=O
Condition not met

Lab note: confirm whether the reported IC50 for this compound is below 1 nM, equality not counting. compound: NC(=O)Cc1c(C(=O)N2CCC(O)(c3ccccc3)CC2)nn(-c2ccccc2Cl)c1-c1ccc(Cl)cc1
Condition met

Lab note: confirm whether the reported IC50 for this compound is below 1 nM, equality not counting. compound: N=C(N)Cc1c(C(=O)NCc2ccc(F)cc2)nn(-c2ccccc2Cl)c1-c1ccc(Cl)cc1
Condition met

Lab note: confirm whether the reported IC50 for this compound is below 1 nM, equality not counting. compound: N#Cc1ccc(N2CCN(C(=O)c3nn(-c4ccccc4Cl)c(-c4ccc(Cl)cc4)c3CC(N)=O)CC2)nc1
Condition not met

Values compiled from ChEMBL document CHEMBL1153249.
